# test.system: Cytochrome P450 3A4 (Homo sapiens, UniProt P08684)
# Sequence (P08684 whole entry): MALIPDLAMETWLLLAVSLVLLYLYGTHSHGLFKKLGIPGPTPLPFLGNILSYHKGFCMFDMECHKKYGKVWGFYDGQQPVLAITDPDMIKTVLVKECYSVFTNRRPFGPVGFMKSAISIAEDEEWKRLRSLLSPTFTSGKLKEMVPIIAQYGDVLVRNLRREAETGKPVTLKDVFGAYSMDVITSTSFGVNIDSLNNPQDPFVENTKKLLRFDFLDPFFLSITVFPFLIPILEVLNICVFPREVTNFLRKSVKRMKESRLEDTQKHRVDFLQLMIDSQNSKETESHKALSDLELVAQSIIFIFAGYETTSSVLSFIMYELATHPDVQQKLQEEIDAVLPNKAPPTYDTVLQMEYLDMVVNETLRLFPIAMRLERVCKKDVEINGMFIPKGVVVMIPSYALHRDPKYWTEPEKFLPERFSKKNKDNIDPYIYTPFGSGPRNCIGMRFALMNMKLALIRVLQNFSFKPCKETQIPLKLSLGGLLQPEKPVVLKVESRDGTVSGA
readout: IC50

CC(C)[C@](O)(c1ccc2c3c(ccc2c1)C(=O)N(C)C3)c1cnc[nH]1; > 10 µM
CNC(=O)c1ccc2cc(C(O)(c3c[nH]cn3)C(C)C)ccc2c1C (racemic); > 10 µM
CC(=O)Nc1ccc2cc(C(O)(c3c[nH]cn3)C(C)C)ccc2c1 (racemic); < 1 µM

Consider the record given below.
Exercise: Form field: reported IC50 of CNC(=O)Nc1ccc2cc(C(O)(c3c[nH]cn3)C(C)C)ccc2c1 (racemic)
Key: < 1 µM
